- SUBJECT_OF_TEST: Tumour suppressor p53/oncoprotein Mdm2 (Homo sapiens, UniProt P04637+Q00987)
- Sequence (P04637 whole entry): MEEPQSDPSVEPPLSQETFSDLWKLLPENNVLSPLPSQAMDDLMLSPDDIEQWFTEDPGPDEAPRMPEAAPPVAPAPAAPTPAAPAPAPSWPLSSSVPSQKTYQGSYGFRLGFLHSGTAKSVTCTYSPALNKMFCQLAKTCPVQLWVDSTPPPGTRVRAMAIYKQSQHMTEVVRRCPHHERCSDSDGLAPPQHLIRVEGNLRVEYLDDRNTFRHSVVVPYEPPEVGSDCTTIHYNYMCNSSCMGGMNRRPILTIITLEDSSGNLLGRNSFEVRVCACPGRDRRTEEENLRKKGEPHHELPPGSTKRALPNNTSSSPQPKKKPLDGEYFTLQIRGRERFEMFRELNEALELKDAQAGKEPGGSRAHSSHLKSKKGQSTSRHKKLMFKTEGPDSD
- Sequence (Q00987 whole entry): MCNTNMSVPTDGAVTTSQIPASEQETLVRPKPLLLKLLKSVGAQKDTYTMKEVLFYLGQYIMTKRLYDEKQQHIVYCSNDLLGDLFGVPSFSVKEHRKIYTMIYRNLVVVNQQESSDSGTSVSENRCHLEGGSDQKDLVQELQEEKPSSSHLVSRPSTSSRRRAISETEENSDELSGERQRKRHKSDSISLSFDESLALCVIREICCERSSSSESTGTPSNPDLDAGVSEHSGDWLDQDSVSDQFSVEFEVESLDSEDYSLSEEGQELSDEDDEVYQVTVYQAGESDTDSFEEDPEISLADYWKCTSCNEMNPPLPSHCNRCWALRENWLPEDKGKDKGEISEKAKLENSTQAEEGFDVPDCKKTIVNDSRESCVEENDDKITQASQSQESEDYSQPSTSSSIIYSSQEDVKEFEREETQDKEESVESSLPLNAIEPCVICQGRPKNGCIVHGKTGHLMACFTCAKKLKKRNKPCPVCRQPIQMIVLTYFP
- TEST_METHOD_NOTES: Inhibition of p53 interaction to MDM2 (unknown origin)
- Assay type: protein assay
Known IC50 of a selection of compounds

COMPOUND | UNITS_OF_MEASURE | IC50
CCOC(=O)N1CCN(C(=O)[C@@]2(Sc3ccccc3)CC(=O)N(Cc3ccc(C#N)cc3)[C@@H]2c2c[nH]c3cc(Cl)ccc23)CC1 | nM | 1000
COc1cccc(C2(Cc3cccc(Cl)c3)C(=O)Nc3cc(Cl)ccc32)c1 (centres undefined) | nM | 460
COc1cccc([C@]2(Cc3cccc(Cl)c3)C(=O)Nc3cc(Cl)ccc32)c1 | nM | 280
CCOC(=O)[C@@]1(c2ccc(Cl)cc2)N=C(c2ccc(OC)cc2OC(C)C)N(C(=O)N2CCN(C(C)=O)CC2)[C@@H]1c1ccc(Cl)cc1 | nM | 70
